z-score overview
tgt: NADPH oxidase 4 (Homo sapiens) (UniProt Q9NPH5)
Sequence (Q9NPH5 whole entry, looked up): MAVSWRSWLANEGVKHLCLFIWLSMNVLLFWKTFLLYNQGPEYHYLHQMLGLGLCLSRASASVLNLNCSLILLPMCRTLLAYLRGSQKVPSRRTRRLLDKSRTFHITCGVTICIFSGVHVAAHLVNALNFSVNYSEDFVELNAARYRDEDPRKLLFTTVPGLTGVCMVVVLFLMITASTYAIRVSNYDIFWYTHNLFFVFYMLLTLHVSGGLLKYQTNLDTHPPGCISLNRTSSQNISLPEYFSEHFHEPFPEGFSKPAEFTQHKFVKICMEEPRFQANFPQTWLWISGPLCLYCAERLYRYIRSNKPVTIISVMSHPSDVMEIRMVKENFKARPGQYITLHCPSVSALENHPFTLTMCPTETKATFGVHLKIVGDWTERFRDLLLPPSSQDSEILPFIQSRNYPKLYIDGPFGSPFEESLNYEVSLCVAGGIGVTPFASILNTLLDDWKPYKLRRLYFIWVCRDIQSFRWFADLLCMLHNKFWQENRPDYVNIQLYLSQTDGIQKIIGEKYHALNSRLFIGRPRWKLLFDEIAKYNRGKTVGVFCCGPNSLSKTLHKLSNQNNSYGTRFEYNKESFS
method description: NOX4-dependent H2O2 signal modulators, primary screen, NOX inhibitor project, cell-based, HEK293-NOX4, tetracycline-induced, Amplex Red fluorescence (AID 1160)
condition notes: 45 min, higher = more signal, called active from +8 up or from −8 down

>  <molecule>
CC(C)=CCCC(C)=CC(O)C1C=CC2C(=O)N(c3ccccc3)C(=O)C2N1Nc1ccccc1 (centres undefined)

>  <z-score>
-4.03

$$$$
>  <molecule>
COCCOC(=O)N1C(=O)[C@@]2(c3cc(C#CCCO)ccc31)[C@H](c1ccc(O)cc1)N1[C@H](c3ccccc3)[C@H](c3ccccc3)OC(=O)[C@H]1[C@@H]2C(N)=O

>  <z-score>
-0.952

$$$$
>  <molecule>
[N-]=[N+]=NCc1ccccc1[C@@H]1OC(c2ccc(OCCCO)cc2)=N[C@]1(Cc1ccccc1N=[N+]=[N-])C(=O)NCc1ccccc1

>  <z-score>
0.0734

$$$$
>  <molecule>
CC(C)(C)OC(=O)CC[C@@]1(C(=O)O)N=C(c2ccc(OCCCO)cc2)O[C@@H]1c1ccccc1N=[N+]=[N-]

>  <z-score>
1.69

$$$$

Cited source for all entries: PubChem BioAssay
